Tested on: NCI/ADR-RES ovarian
Experiment: NCI tumour cell line growth inhibition, 48 h
Reported TGI values follow for various compounds
Form entry: value (µM) — number only.

| compound | TGI (µM) |
| --- | --- |
| COC(=O)[C@]1(C)CC[C@]2(C)CC[C@]3(C)C(=CC(=O)[C@@H]4[C@@]5(C)CCC(=O)NC(C)(C)[C@@H]5CC[C@]43C)[C@@H]2C1 | 53.6 |

Query: # lookup: TGI of O=c1cc(-c2cccc(Br)c2)[nH]c2cc3c(cc12)OCO3
Reply: 30.7

Query: For CCCCCCCCC(=O)NCCN(CCN)C(=O)CCCCCCCC , what is its reported TGI?
Reply: 31.1

Query: Quick one: TGI for Cn1c(=O)c2[nH]cnc2n(C)c1=O.[CH2-]C(Cc1cccc2cc(C(=O)O)c(=O)oc12)OC.[Hg+2].[OH-] (stereo not given) ?
Reply: 38.1

###

System: UO-31 renal
Assay: NCI tumour cell line growth inhibition, 48 h
Listed here are molecules together with their documented GI50.

Solved entries:
| molecule | GI50 |
| --- | --- |
| C[C@H](CCCOS(C)(=O)=O)[C@H]1CC[C@H]2[C@@H]3CC[C@@H]4C[C@H](OS(C)(=O)=O)CC[C@]4(C)[C@H]3CC[C@]12C | > 2500 µM |
| CNCC1CCn2c(c(C3=C(c4cn(C)c5ccccc45)C(=O)NC3=O)c3ccccc32)C1 (stereo not given) | 2.6 µM |
| CN1CCN(Cc2ccc(NC(=O)c3[nH]ncc3Nc3cc(OC4CCCC4)ncn3)cc2)CC1 | 1.4 µM |
| CN1CCN(Cc2ccc(NC(=O)c3cncc(C#Cc4ncc5ccccn45)c3)cc2C(F)(F)F)CC1 | 1.25 µM |
| COc1cc2c3c(n(CCCN4CCN(CCO)CC4)c(=O)c2cc1OC)-c1cc2c(cc1C3=O)OCO2 | > 91.5 µM |

Query: Requested field: GI50. Item: COc1ccc(CNC(=O)c2c(C)n([O-])c3cc(F)c(F)cc3[n+]2=O)cc1
Reply: 12.8 µM

Query: I'd like to know its GI50. The molecule in question is Cn1c(=O)c2[nH]cnc2n(C)c1=O.[CH2-]C(Cc1cccc2cc(C(=O)O)c(=O)oc12)OC.[Hg+2].[OH-] (stereo not given)
Reply: 16.1 µM

Query: // GI50 lookup, key: CCCC(CCC)C(=O)O
Reply: > 100 µM

Query: Entry CCC(=O)Oc1ccc(/C=N/NC(N)=S)nc1 : reported GI50 = ?
Reply: 3.48 µM

Query: Suppose we examine the molecule CCC(=O)OCN1C(=O)C=CC1=O ; what GI50 value has been reported?
Reply: 17.5 µM

###

Reported values of TGI for individual entries
Tested on: M14 melanoma
Test: NCI tumour cell line growth inhibition, 48 h

# annotated cases, reported TGI shown
| molecule | measurement.name | reported |
| --- | --- | --- |
| CCOC(=O)c1c(CN2CCOCC2)n(Cc2ccccc2)c2c1cc(O)c1nc(C)c(C)nc12 | TGI | > 100 µM |
| CC(=O)Nc1ccccc1S(=O)c1ccccc1 (stereo not given) | TGI | > 100 µM |
| COC(=O)CCc1c(/C=C2\N=C(c3ccc[nH]3)C=C2OC)[nH]c(C)c1C(=O)OCc1ccccc1 | TGI | 0.784 µM |
| NNC(=O)N/N=C1/C(=O)N(c2ccc(Cl)c(Cl)c2)C(=O)C(=O)C1c1nc2ccccc2o1 (stereo not given) | TGI | > 100 µM |

Proceeding to the next molecule to report its TGI.
Query: What TGI value was documented for this molecule, C[Si](C)(C)C#CCOC=C1CC1 ?
Reply: > 100 µM

###

Tested on: OVCAR-8 ovarian
Assay: NCI tumour cell line growth inhibition, 48 h; in the data active = GI50 below about 0.43 µM; inactive = the rest
Choose the fitting class; nothing outside 1 (active), 0 (inactive) is accepted.

| compound | class |
| --- | --- |
| O=S1(=O)C=C(c2ccccc2)C(c2ccccc2)=C1 | 0 |
| Cn1c(=O)c2[nH]cnc2n(C)c1=O.[CH2-]C(Cc1cccc2cc(C(=O)O)c(=O)oc12)OC.[Hg+2].[OH-] (stereo unspecified) | 0 |
| NC(=S)N=Nc1c(O)[nH]c2ccccc12 | 0 |
| COc1ccc2c(c1)C(=O)c1c-2n(CCCNCCO)c(=O)c2cc([N+](=O)[O-])ccc12 | 1 |
| Nc1nc(Cl)c2ncn(Cc3ccc(-c4ccc(CCl)cc4)cc3)c2n1 | 0 |

# next compound below
Query: Lab log entry: Nc1cc(N)c2nc(-c3ccccc3)c(Oc3ccc(Cl)c(Cl)c3)nc2c1 — outcome as called in the assay?
Reply: 0

###

Recorded measurements of TGI, one per entry
Tested on: OVCAR-4 ovarian
Test: NCI tumour cell line growth inhibition, 48 h

Use the examples below as a reference point.
| compound | TGI |
| --- | --- |
| Cc1ccc2nnc(NS(=O)(=O)c3cc(C)c(Cl)cc3S)n2n1 | > 100 µM |
| COC(=O)C1=C(O)C(C(=O)OC)[C@@]2(O)[C@@H](C(=O)OC)C(c3ccccc3Cl)C[C@@H]1[C@@H]2C(=O)OC (some centres not stated) | 13.8 µM |

Query: Which TGI is listed for O=[N+]([O-])c1ccc2nc(=S)[nH]n2c1 ?
Reply: > 100 µM

Query: Can you share its TGI? I mean this compound: CSc1nc(-c2cccc(NC(=O)CCl)c2)c(C#N)c(=O)n1C
Reply: 3.32 µM

Query: Recorded TGI of NC(=S)N=Nc1c(O)[nH]c2ccccc12 , please.
Reply: > 1000 µM

Query: Given O=S1Cc2ccccc2CSS1 (configuration not stated) , state its recorded TGI.
Reply: 31.7 µM

Query: Which TGI is listed for CC(=O)Nc1cc(CN2CCCCC2)c(O)c2ncccc12 ?
Reply: > 100 µM

Query: Which value of TGI has been reported for CC1(C)N=C(N)N=C(N)N1CCCCc1ccccc1 in the records?
Reply: > 100 µM

Query: Recorded TGI for CCC12C=CCN3CCC4(C(=C(C(=O)OC)C1)Nc1ccccc14)[C@H]32 (some centres not stated) , please?
Reply: > 100 µM

###

Reported TGI is given for each of the following compounds.
Tested on: SR leukemia
Test: NCI tumour cell line growth inhibition, 48 h

Worked examples follow.
| compound | reported |
| --- | --- |
| N=c1oc2ccc(Cl)cc2cc1C(=O)NC1CCCCC1 | > 100 µM |
| CC(C)C(=O)CP(=O)(O)O | > 100 µM |
| O=C(NC(Cc1ccccc1)P(=O)(O)c1ccccc1)OCc1ccccc1 (stereo not given) | > 100 µM |
| S=c1sscc1N1CCSc2ssc(=S)c21 | > 100 µM |
| COc1cccc(-c2cc(=O)c3cc(N4CCCC4)ccc3[nH]2)c1 | < 0.001 µM |

Query: So what does the record say about TGI for NCCNc1ncnc2ccc(Cl)cc12 ?
Reply: > 100 µM

Query: Name the reported TGI value associated with the compound N#C/C=C\c1ccc(-c2cc(C(F)(F)F)cc(C(F)(F)F)c2)o1
Reply: 40.7 µM

###

System: HT29 colon
Assay: NCI tumour cell line growth inhibition, 48 h
measurement.name: GI50

Consider the worked cases shown below.
| molecule | system.under.test | reported |
| --- | --- | --- |
| O=C(CN1CCN(c2ccccn2)CC1)Nc1ccc(Cl)cc1C(=O)c1ccccc1Cl | HT29 colon | 8.92 µM |
| COc1ccc(-c2c(C#N)cnc(N)c2-c2nc3cc(C)c(C)cc3[nH]2)cc1 | HT29 colon | 4.79 µM |
| COC(=O)[C@]1(C)CC[C@]2(C)CC[C@]3(C)C(=CC(=O)[C@@H]4[C@@]5(C)CCC(=O)NC(C)(C)[C@@H]5CC[C@]43C)[C@@H]2C1 | HT29 colon | 11.9 µM |
| CC(CNc1nc(Nc2ccc(Cl)c(Cl)c2)nc(C(Cl)(Cl)Cl)n1)N(C)C (centres undefined) | HT29 colon | 1.66 µM |

Query: Please give the measured GI50 for this molecule: CC1CC2(C)CC(=O)C1C1C(=O)N(CCN3CCOCC3)C(=O)C12 (centres undefined)
Reply: > 100 µM

Query: Form field: reported GI50 of CC(=O)Nc1nc(C)c(-c2cc3c(c(S(C)(=O)=O)c2)C(=O)N([C@@H](C)C2CC2)C3)s1
Reply: 31 µM

Query: Could you share which GI50 value was measured for COC(=O)C1=C(O)C(C(=O)OC)[C@@]2(O)[C@@H](C(=O)OC)C(c3ccccc3Cl)C[C@@H]1[C@@H]2C(=O)OC (some centres undefined) ?
Reply: 6.28 µM

Query: Request the reported GI50 associated with NC(N)=N/N=C/c1ccc(Br)cc1
Reply: 3.03 µM

Query: For the molecule shown here, C=C1C(OCCO)OC2O[C@]3(C)CCC4[C@H](C)CCC1C24OO3 (some centres undefined) , give the reported GI50.
Reply: 7.54 µM
